targetSystem: JAK1 (Homo sapiens (Human))
Sequence (P23458 875-1153): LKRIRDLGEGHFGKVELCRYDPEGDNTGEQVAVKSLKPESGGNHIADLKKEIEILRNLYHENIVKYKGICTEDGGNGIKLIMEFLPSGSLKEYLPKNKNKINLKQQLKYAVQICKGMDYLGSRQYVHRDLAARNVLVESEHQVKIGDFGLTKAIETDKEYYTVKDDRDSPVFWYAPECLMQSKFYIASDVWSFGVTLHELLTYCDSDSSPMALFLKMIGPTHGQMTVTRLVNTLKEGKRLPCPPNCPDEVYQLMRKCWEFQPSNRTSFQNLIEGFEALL
assayComment: JAK Caliper Enzyme Assay at 1 mM ATP, JAK1
Format: biochemical
cond: JAK Caliper enzyme assay
pIC50: −log10 of the molar value.
Threshold rule: pIC50 greater than or equal to 6 is 1 (yes); below that, 0 (no).

Has N#CC[C@]1(n2ncc(-c3cc(-c4cnn5cccnc45)cc4ncccc34)n2)C[C@H](C#N)C1 a recorded pIC50 greater than or equal to 6?
0 (no)

Has CS(=O)(=O)Nc1cccc(-c2cc(-c3cnn(C4(CC#N)CC(C#N)C4)n3)c3cccnc3c2)n1 (stereo not drawn) [Example 373] a recorded pIC50 greater than or equal to 6?
0 (no)

Has N#CC[C@]1(n2ncc(-c3cc(-c4cnc5ncccn45)cc4ncccc34)n2)C[C@H](C#N)C1 a recorded pIC50 greater than or equal to 6?
0 (no)

Has COc1nc(-c2cc(-c3cnn([C@]4(CC#N)C[C@H](C#N)C4)n3)c3cccnc3c2)ccc1N a recorded pIC50 greater than or equal to 6?
1 (yes)

Has CC(=O)Nc1cccc(-c2cc(-c3cnn([C@]4(CC#N)C[C@@H](C#N)C4)n3)c3cccnc3c2)n1 a recorded pIC50 greater than or equal to 6?
1 (yes)

Has Cc1cncc(-c2cc(-c3cnn([C@]4(CC#N)C[C@@H](C#N)C4)n3)c3cccnc3c2)n1 a recorded pIC50 greater than or equal to 6?
0 (no)

Has CS(=O)(=O)N1CC(CC#N)(n2ncc(-c3cc(-c4c[nH]c(=O)[nH]c4=O)cc4ncccc34)n2)C1 a recorded pIC50 greater than or equal to 6?
0 (no)

Has Cc1ncc(-c2cc(-c3cnn([C@]4(CC#N)C[C@H](C#N)C4)c3)n3ccnc3c2)[nH]1 a recorded pIC50 greater than or equal to 6?
0 (no)

Has N#CC[C@]1(n2cc(-c3cc(-c4c[nH]nc4N)cc4nccn34)cn2)C[C@@H](C#N)C1 a recorded pIC50 greater than or equal to 6?
0 (no)

Has N#CC[C@]1(n2ncc(-c3cc(-c4cc(C(N)=O)c(F)cn4)cc4ncccc34)n2)C[C@@H](C#N)C1 a recorded pIC50 greater than or equal to 6?
0 (no)

Has CC(=O)Nc1cccc(-c2cc(-c3cnn(C4(CC#N)CC(C#N)C4)n3)c3cccnc3c2)n1 (stereo not drawn) a recorded pIC50 greater than or equal to 6?
1 (yes)

Has Cn1cc(-c2cc(-c3cnn(C4(CC#N)CN(CC(F)(F)F)C4)c3)n3ccnc3c2)cn1 a recorded pIC50 greater than or equal to 6?
0 (no)

Has CO[C@H]1C[C@@](CC#N)(n2cc(-c3cc(-c4cnn(C)c4)cc4nccn34)cn2)C1 a recorded pIC50 greater than or equal to 6?
0 (no)

Has Cc1ncc(N)nc1-c1cc(-c2cnn([C@]3(CC#N)C[C@H](C#N)C3)n2)c2cccnc2c1 a recorded pIC50 greater than or equal to 6?
0 (no)

Has N#CC[C@]1(n2ncc(-c3cc(-c4ccc(-c5nnn[nH]5)cc4)cc4ncccc34)n2)C[C@@H](C#N)C1 a recorded pIC50 greater than or equal to 6?
1 (yes)

Has N#CC[C@]1(n2ncc(-c3cc(-c4cc[nH]c(=O)c4)cc4ncccc34)n2)C[C@@H](C#N)C1 a recorded pIC50 greater than or equal to 6?
0 (no)
